I'd appreciate it if you could supply IC50 values for the items below.
biological target: PD-1/PD-L1 (Homo sapiens, UniProt Q9NZQ7); construct: made in house; host or cells: HEK293T; assay: PD-1/PD-L1 Homogenous Time-Resolved Fluorescence (HTRF) binding assay; settings: PD-L1-His 10 nM, PD-1-Ig 20 nM; value given as range class; read-out: Range or IC50
Sequence (Q9NZQ7 with tags, fused parts or gaps): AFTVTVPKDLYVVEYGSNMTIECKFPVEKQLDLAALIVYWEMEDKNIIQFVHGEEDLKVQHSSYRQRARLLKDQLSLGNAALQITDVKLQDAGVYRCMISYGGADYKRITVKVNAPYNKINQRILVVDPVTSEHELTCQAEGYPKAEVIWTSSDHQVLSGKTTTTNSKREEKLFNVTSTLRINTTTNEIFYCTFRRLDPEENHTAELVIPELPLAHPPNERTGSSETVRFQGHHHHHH
Where a name gives a salt, the structure may show the parent alone.

Per the records, this compound ( Cc1c(COc2cc(OCc3cncc(C#N)c3)c(CNC[C@H](O)CO)cc2Cl)cccc1-c1cccc(OCCCO)c1Cl [Example 2116] ) has IC50 equal to 0.21 to 10 nM

Record summary for Cc1c(COc2cc(OCc3cncc(C#N)c3)c(CNCCCN(C)C)cc2Cl)cccc1-c1cccc(OCCCN2CCC(O)C2)c1 (stereo in doubt) [Example 3001] : reported IC50 = 0.21 to 10 nM

Given item C=CC(=O)NCCNCc1cc(Cl)c(OCc2cccc(-c3cccc(OCCCN4CC[C@@H](O)C4)c3C)c2C)cc1OCc1cncc(S(C)(=O)=O)c1 [Example 1034] , the value recorded as its IC50 is 10 to 100 nM

# IC50 of Cc1c(CCCCN2CC[C@@H](O)C2)cccc1-c1cccc(COc2cc(OCc3cncc(C#N)c3)c(CN3CCCC[C@H]3C(=O)O)cc2Cl)c1C [Example 4061] = 0.21 to 10 nM

Looking up CNC(=O)c1cccc(-c2cccc(COc3cc(OCc4cc(F)cc(F)c4)c(CNC(C)(CO)CO)cc3Cl)c2C)c1C [Example 4029] , I found its IC50 recorded as 10 to 100 nM

The compound identified as Cc1c(COc2cc(OCc3cncc(C#N)c3)c(CN3CCCC[C@H]3C(=O)O)cc2Cl)cccc1-c1cccc(OCCCN2CCC[C@H](C(=O)O)C2)c1C [Example 2204] registered its IC50 at 0.21 to 10 nM

Per the record, Cc1c(COc2cc(OCc3ccc(F)c(F)c3)c(CNC(C)(CO)CO)cc2Cl)cccc1-c1cccc(OCCCN2CC[C@@H](O)C2)c1C [Example 4510] has IC50 of 10 to 100 nM

Sample Cc1c(COc2cc(OCc3cncc(C#N)c3)c(CN[C@H](CO)C(=O)O)cc2Cl)cccc1-c1cccc(OCCN2CCOCC2)c1 [Example 1001] ; IC50 observed: 10 to 100 nM

Entry Cc1c(COc2cc(OCc3cncc(C#N)c3)c(CN3CCCC[C@H]3C(=O)O)cc2Cl)cccc1-c1cccc(OCCCN(C)Cc2cccnc2)c1C [Example 2226] , IC50 reported as 0.21 to 10 nM

Reported IC50 for COC(=O)[C@@H]1CCCCN1Cc1cc(Cl)c(OCc2cccc(-c3cccc(OCCCN4CCOCC4)c3C)c2C)cc1OCc1cccc(C#N)c1 [Example 3053, TFA] was 100 to 2000 nM

The recorded IC50 for Cc1c(COc2cc(OCc3cncc(C#N)c3)c(C(=O)NC(C)(CO)CO)cc2Cl)cccc1-c1cccc(OCCCN2CC[C@@H](O)C2)c1C [Example 2378] is 0.21 to 10 nM

Value of measured IC50 for the entry Cc1c(COc2cc(OCc3cncc(C#N)c3)c(CNC(CO)CO)cc2Cl)cccc1-c1cccc(NC(=O)c2ncccc2CO)c1C [Example 2340] : 10 to 100 nM

* * *

Consider the following compounds; for each one, report its pIC50.
target: PD-1/PD-L1 (Homo sapiens, UniProt Q9NZQ7); construct: made in house; host or cells: HEK293T; test: PD-1/PD-L1 Homogenous Time-Resolved Fluorescence (HTRF) binding assay; details: PD-L1-His 10 nM, PD-1-Ig 20 nM; value given as range class; read-out: Range or IC50
pIC50: −log10 of the molar value.

Data point: COc1cc(/C=C/c2cccc(-c3cccc(OCCCN4CC[C@@H](O)C4)c3C)c2C)c(Cl)cc1CN1CCCC[C@H]1C(=O)O ; pIC50 = 8.00 to 9.68

Lab note: measured pIC50 of Cc1c(COc2cc(OCc3cncc(S(C)(=O)=O)c3)c(CN3CCCC[C@H]3C(=O)O)cc2Cl)cccc1-c1cccc(OCCCN2CC[C@@H](O)C2)c1 was 8.00 to 9.68

The compound listed as Cc1c(COc2cc(OCc3cncc(C#N)c3)c(CNC(C)(CO)CO)cc2Cl)cccc1-c1cccc(OCCCNC[C@H](O)CO)c1C has a reported pIC50 of 8.00 to 9.68

Quick note, pIC50 for Cc1c(COc2cc(OCc3cncc(C#N)c3)c(CN[C@H](CO)C(=O)O)cc2Cl)cccc1-c1cccc(OCCCN2CCC(CO)(C(=O)O)C2)c1C (stereo partly drawn) landed at 8.00 to 9.68

GET /value?item= Cc1c(COc2cc(OCc3cncc(C#N)c3)c(CO)cc2Cl)cccc1-c1cccc(OCCCN2CCCC(CO)C2)c1Cl (stereo not drawn) &field=pIC50 returns 8.00 to 9.68

The reported value for CCNC(=O)c1cccc(-c2cccc(COc3cc(OCc4cc(F)cc(F)c4)c(CNC(CO)CO)cc3Cl)c2C)c1C in terms of pIC50 is 5.70 to 7.00

* * *

biological target: PD-1/PD-L1 (Homo sapiens, UniProt Q9NZQ7); construct: made in house; host or cells: HEK293T; assay: PD-1/PD-L1 Homogenous Time-Resolved Fluorescence (HTRF) binding assay; conditions: PD-L1-His 10 nM, PD-1-Ig 20 nM; value given as range class; read-out: Range or IC50
Please provide measured IC50 for the entries that follow.

IC50 reported for this molecule Cc1c(COc2cc(OCc3cncc(C#N)c3)c(CN3CCCC[C@H]3C(=O)O)cc2Cl)cccc1-c1cccc(OCCCN2CCCC(CO)C2)c1C (stereo partly drawn) : 0.21 to 10 nM

// Cc1c(COCCN2CC[C@@H](O)C2)cccc1-c1cccc(COc2cc(OCc3cncc(C#N)c3)c(CN(C)C(CO)CO)cc2Cl)c1C : IC50 value = 0.21 to 10 nM

The molecule identified as N#Cc1cncc(COc2cc(OCc3cccc(-c4cccc(OCCCNC[C@H](O)CO)c4Cl)c3Cl)c(Cl)cc2CNC[C@H](O)CO)c1 registered its IC50 at 0.21 to 10 nM

* * *

Answer each item with its documented pIC50.
molecular target: PD-1/PD-L1 (Homo sapiens, UniProt Q9NZQ7); construct: made in house; host or cells: HEK293T; experiment: PD-1/PD-L1 Homogenous Time-Resolved Fluorescence (HTRF) binding assay; settings: PD-L1-His 10 nM, PD-1-Ig 20 nM; value given as range class; read-out: Range or IC50
pIC50: −log10 of the molar value.

Sample Cc1c(OCCCN2CC[C@@H](O)C2)cccc1-c1cccc(COc2cc(OCc3cncc(C#N)c3)c(CN[C@H](CO)C(=O)O)cc2Cl)c1 ; pIC50 observed: 8.00 to 9.68

Reported pIC50 for Cc1c(COCCN2CC[C@@H](O)C2)cccc1-c1cccc(COc2cc(OCc3cncc(C#N)c3)c(CNC(CO)(CO)CO)cc2Cl)c1C was 8.00 to 9.68

Reported pIC50 for Cc1c(COc2cc(OCc3cncc(C#N)c3)c(CNC3(CO)COC3)cc2Cl)cccc1-c1cccc(OCCCN2CC[C@@H](O)C2)c1Cl was 8.00 to 9.68

Entry Cc1c(COc2cc(OCc3cncc(C#N)c3)c(CNC(C)(CO)CO)cc2Cl)cccc1-c1cccc(OCCCN2CCCCC2)c1C ; pIC50 = 8.00 to 9.68

Quick note, pIC50 for Cc1c(COc2cc(OCc3cncc(S(C)(=O)=O)c3)c(CN3CCCC[C@H]3C(=O)O)cc2Cl)cccc1-c1cccc(OCCCN2CC[C@@H](O)C2)c1Cl landed at 7.00 to 8.00

Sure, the documented pIC50 for CCOC(=O)C1(CO)CCN(CCCOc2cccc(-c3cccc(COc4cc(OCc5cncc(S(C)(=O)=O)c5)c(CN[C@H](CO)C(=O)O)cc4Cl)c3C)c2C)C1 (stereo partly drawn) is 8.00 to 9.68

// recorded pIC50 for Cc1ccccc1-c1cccc(COc2cc(OCc3cncc(C#N)c3)c(CN[C@](C)(CO)C(=O)O)cc2Cl)c1C : 8.00 to 9.68

So for Cc1c(COCCN2CC[C@@H](O)C2)cccc1-c1cccc(COc2cc(OCc3cncc(C#N)c3)c(CN(C)C3(C(=O)O)CC3)cc2Cl)c1C , the logged pIC50 turned out to be 8.00 to 9.68

The reported pIC50 of the compound Cc1c(COc2cc(OCc3cncc(S(C)(=O)=O)c3)c(CN3CCCC[C@H]3C(=O)O)cc2Cl)cccc1-c1ccc2c(c1)OC(CCN1CC[C@@H](O)C1)CO2 (mixture of isomers) was 8.00 to 9.68

In plain terms, Cc1c(COc2cc(OCc3cncc(C#N)c3)c(CNC(CO)(CO)CO)cc2Cl)cccc1-c1cccc(CN(C)CCN2CCS(=O)(=O)CC2)c1C has a documented pIC50 of 8.00 to 9.68

Sample Cc1c(COc2cc(OCc3cncc(C#N)c3)c(CN[C@](C)(CO)C(=O)O)cc2Cl)cccc1-c1cccc(OCCCN2CCC(O)C2)c1C(F)(F)F (stereo in doubt) ; pIC50 observed: 8.00 to 9.68

Data point: CCN(CC)C(=O)c1cccc(-c2cccc(COc3cc(OCc4cncc(C#N)c4)c(CNC(C)(CO)CO)cc3Cl)c2C)c1C ; pIC50 = 5.70 to 7.00

Data origin: patent US10745382B2
